Consider the following binders and their measured MC4R selectivity vs MC1R readings.
- target.entity: human MC4R receptor (human, UniProt P32245 1-332)
- Sequence (P32245 whole entry): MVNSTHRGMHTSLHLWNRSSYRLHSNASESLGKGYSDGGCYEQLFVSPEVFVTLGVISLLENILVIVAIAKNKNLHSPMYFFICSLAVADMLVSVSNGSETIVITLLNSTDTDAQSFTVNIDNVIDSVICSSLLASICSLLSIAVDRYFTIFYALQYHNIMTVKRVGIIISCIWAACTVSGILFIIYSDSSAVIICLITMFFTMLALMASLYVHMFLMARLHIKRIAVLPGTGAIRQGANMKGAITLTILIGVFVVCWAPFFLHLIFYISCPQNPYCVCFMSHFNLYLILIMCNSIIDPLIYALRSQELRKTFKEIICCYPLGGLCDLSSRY
- protocol.notes: cell-based or functional assay
Positions of bridges follow the written chain, without caps; N, C: chain ends. Non-standard residues stand in square brackets, D forms with d. Cit = NC(=O)NCCC[C@H](N)C(=O)O; Nle = CCCC[C@H](N)C(=O)O
Please state the value as a number alone, without comment.

binder	assay.result
Ac-R[Nle]CR[dF]R[dW]C-NH2 (disulfide 3-8) [CTX-1616]	1.51
Ac-RC[dA][Cit][dF]RWC-NH2 (disulfide 2-8) [CTX-1285]	134
{CH2CO}-GH[dF]RWC-NH2 (thioether N-6; SMILES N=C(N)NCCC[C@@H]1NC(=O)[C@@H](Cc2ccccc2)NC(=O)[C@H](Cc2c[nH]cn2)NC(=O)CNC(=O)CSC[C@@H](C(N)=O)NC(=O)[C@H](Cc2c[nH]c3ccccc23)NC1=O) [CTX-1644]	4.84

Attention now turns to another entry.
Q: Reported MC4R selectivity vs MC1R, binder Ac-R[Nle]CH[dF]RWC-NH2 (disulfide 3-8; SMILES CCCC[C@H](NC(=O)[C@H](CCCNC(=N)N)NC(C)=O)C(=O)N[C@H]1CSSC[C@@H](C(N)=O)NC(=O)[C@H](Cc2c[nH]c3ccccc23)NC(=O)[C@H](CCCNC(=N)N)NC(=O)[C@@H](Cc2ccccc2)NC(=O)[C@H](Cc2c[nH]cn2)NC1=O) [CTX-1227] : ____
Ans: 0.92
